Tested on: Pseudomonas aeruginosa
Assay: Antimicrobial activity against Pseudomonas aeruginosa ATCC […] assessed as growth inhibition by microdilution assay
Assay type: functional
recorded.endpoint: MIC (µg/mL)
Give just the numeric value; µg/mL need not be written.

Notebook: C/C=C(/NC(=O)[C@@H](O)[C@@H](C)CC)C(=O)N[C@@H](CC(C)C)C(=O)N[C@H](CCCN)C(=O)N[C@H](C(=O)N[C@H](C(=O)N[C@H](C(=O)N[C@H](CCCCN)C(=O)N[C@H](C(=O)N[C@H](C(=O)N[C@@H](CCCCN)C(=O)N[C@H](Cc1ccc(O)cc1)C(=O)N[C@@H](CC(C)C)C(=O)N[C@H](CO)C(C)C)C(C)C)C(C)C)C(C)C)[C@@H](C)CC)[C@@H](C)CC , MIC read as 1
